# assay.target: RAF proto-oncogene serine/threonine-protein kinase (Homo sapiens, UniProt P04049)
# Sequence (P04049 whole entry): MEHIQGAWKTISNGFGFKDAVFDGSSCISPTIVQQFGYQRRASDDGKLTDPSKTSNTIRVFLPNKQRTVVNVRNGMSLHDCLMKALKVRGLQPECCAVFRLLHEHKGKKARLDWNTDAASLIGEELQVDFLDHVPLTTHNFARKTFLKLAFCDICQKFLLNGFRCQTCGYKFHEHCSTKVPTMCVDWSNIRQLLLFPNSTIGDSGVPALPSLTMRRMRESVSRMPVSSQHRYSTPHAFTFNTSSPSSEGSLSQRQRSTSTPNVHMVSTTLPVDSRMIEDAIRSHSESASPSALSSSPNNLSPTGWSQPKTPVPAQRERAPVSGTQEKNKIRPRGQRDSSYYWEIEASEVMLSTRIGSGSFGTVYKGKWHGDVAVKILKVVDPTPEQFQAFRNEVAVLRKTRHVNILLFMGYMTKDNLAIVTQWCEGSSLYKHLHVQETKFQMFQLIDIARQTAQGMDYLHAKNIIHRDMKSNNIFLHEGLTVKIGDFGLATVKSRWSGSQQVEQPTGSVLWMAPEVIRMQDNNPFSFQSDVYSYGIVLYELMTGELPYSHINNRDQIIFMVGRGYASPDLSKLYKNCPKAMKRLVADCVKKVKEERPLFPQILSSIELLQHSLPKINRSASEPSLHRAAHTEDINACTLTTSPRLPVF
pIC50: −log10 of the molar value.
Reported pIC50 values follow for various compounds

Reference set, count: 5
>  <compound>
Cn1cc(/C=C2\C(=O)Nc3ncccc32)c2ccccc21

>  <assay.target>
RAF proto-oncogene serine/threonine-protein kinase (Homo sapiens, UniProt P04049)

>  <pIC50>
5.14

$$$$
>  <compound>
O=C1Nc2ccccc2/C1=C/Nc1ccc2[nH]c(=O)[nH]c2c1 [GW284408X]

>  <assay.target>
RAF proto-oncogene serine/threonine-protein kinase (Homo sapiens, UniProt P04049)

>  <pIC50>
< 5.00

$$$$
>  <compound>
NS(=O)(=O)c1cccc(N/C=C2\C(=O)Nc3ccccc32)c1 [GW275616X]

>  <assay.target>
RAF proto-oncogene serine/threonine-protein kinase (Homo sapiens, UniProt P04049)

>  <pIC50>
< 5.00

$$$$
>  <compound>
CS(=O)(=O)Nc1ccc(N/C=C2\C(=O)Nc3ccccc32)cc1 [GW278681X]

>  <assay.target>
RAF proto-oncogene serine/threonine-protein kinase (Homo sapiens, UniProt P04049)

>  <pIC50>
< 5.00

$$$$
>  <compound>
COc1ccccc1-c1cc(/C=C2\C(=O)Nc3ncc(Br)cc32)cc(Br)c1O [GW442130X]

>  <assay.target>
RAF proto-oncogene serine/threonine-protein kinase (Homo sapiens, UniProt P04049)

>  <pIC50>
6.15

$$$$

We now examine a further compound.
Which pIC50 value belongs to O=C1Nc2ccccc2/C1=C/Nc1ccc(-n2cncn2)cc1 [GW301789X] ?
< 5.00
